EXPERIMENTAL_PROTOCOL: in vivo
CONDITIONS_USED: female, CD-1, mouse, iv
MEASUREMENT_LABEL: concentration at 0.167 h (ng/mL)

>  <SMILES_ENTRY>
COc1ccc(-c2ccc3c(N4CCOC[C@@H]4C)nc(N4CCOC[C@@H]4C)nc3n2)cc1CO

>  <MEASUREMENT_LABEL>
concentration at 0.167 h

>  <RESULT_UNITS>
ng/mL

>  <QUANTITATIVE_READOUT>
3300

$$$$

---

EXPERIMENTAL_PROTOCOL: Pharmacokinetic analysis of plasma after intravenous and oral dosing
CONDITIONS_USED: female, CD-1, mouse, plasma, iv, 15 mg kg^−1, Concentration; Time 7 h; individual animals; Supplementary Figure 12a
MEASUREMENT_LABEL: concentration at 7 h (ng/mL)

>  <MOLECULE>
O=C(O)c1ccc(F)c(F)c1Nc1ccc(I)cc1F [PD315209, reference compound]

>  <MEASUREMENT_LABEL>
concentration at 7 h

>  <QUANTITATIVE_READOUT>
22.8

$$$$

---

EXPERIMENTAL_PROTOCOL: Bioavailability studies: recovery in feces and urine
Format: in vivo, mouse
CONDITIONS_USED: female, CD-1, mouse; mice, oral, feces collected after 48 h; read-out: recovery from fecal samples, % of total recovered

>  <COMPOUND>
O=C(NOCCOCCOCCOCCC(=O)N1CCN(c2cnc3ccc(-c4cnc(Cl)c(NS(=O)(=O)c5ccc(F)cc5)c4)cc3n2)CC1)c1ccc(F)c(F)c1Nc1ccc(I)cc1F [LP-182]

>  <dose excreted at 48 h [%]>
5

$$$$

---

EXPERIMENTAL_PROTOCOL: Pharmacokinetic analysis of plasma after intravenous and oral dosing
CONDITIONS_USED: female, CD-1, mouse, plasma, iv, 15 mg kg^−1, Concentration; Time 0.167 h; individual animals; Supplementary Figure 12b

>  <MOLECULE>
O=C(O)c1ccc(F)c(F)c1Nc1ccc(I)cc1F [PD315209, reference compound]

>  <concentration at 0.167 h (ng/mL)>
641

$$$$

---

EXPERIMENTAL_PROTOCOL: Pharmacokinetic analysis of plasma after intravenous and oral dosing
CONDITIONS_USED: female, CD-1, mouse, plasma, iv, 15 mg kg^−1, Concentration, Figure 6c; Time 1 h; individual replicates
MEASUREMENT_LABEL: concentration at 1 h (ng/mL)

>  <COMPOUND>
O=C(NOCCO)c1ccc(F)c(F)c1Nc1ccc(I)cc1F [PD0316684, reference compound]

>  <QUANTITATIVE_READOUT>
39.4

$$$$

---

EXPERIMENTAL_PROTOCOL: Pharmacokinetic analysis of plasma after intravenous and oral dosing
CONDITIONS_USED: female, CD-1, mouse, plasma, po, 200 mg kg^−1, Concentration; Time 7 h; individual animals; Supplementary Figure 12a
MEASUREMENT_LABEL: concentration at 7 h (ng/mL)

>  <COMPOUND>
O=C(O)c1ccc(F)c(F)c1Nc1ccc(I)cc1F [PD315209, reference compound]

>  <QUANTITATIVE_READOUT>
1870

$$$$

---

Reported values of concentration at 1 h for individual entries
EXPERIMENTAL_PROTOCOL: Pharmacokinetic analysis of plasma after intravenous and oral dosing
CONDITIONS_USED: female, CD-1, mouse, plasma, po, 400 mg kg^−1, Concentration (ng/mL), mice, single p.o. LP-182 400 mg kg^−1, 1 h; analyte = label; individual animals

>  <COMPOUND>
O=C(NOCCO)c1ccc(F)c(F)c1Nc1ccc(I)cc1F [PD0316684, reference compound]

>  <concentration at 1 h [ng/mL]>
500

$$$$
>  <COMPOUND>
O=C(NOCCOCCOCCOCCC(=O)N1CCN(c2cnc3ccc(-c4cnc(Cl)c(NS(=O)(=O)c5ccc(F)cc5)c4)cc3n2)CC1)c1ccc(F)c(F)c1Nc1ccc(I)cc1F

>  <concentration at 1 h [ng/mL]>
1240

$$$$

---

EXPERIMENTAL_PROTOCOL: Pharmacokinetic analysis of plasma after intravenous and oral dosing
CONDITIONS_USED: female, CD-1, mouse, plasma, iv, 15 mg kg^−1, Concentration, Supplementary Figure 6a; Time 0.5 h; individual replicates

>  <COMPOUND>
O=C(O)c1ccc(F)c(F)c1Nc1ccc(I)cc1F [PD315209, reference compound]

>  <RESULT_UNITS>
ng/mL

>  <concentration at 0.5 h>
923

$$$$
>  <COMPOUND>
O=C(NOCCOCCOCCOCCC(=O)N1CCN(c2cnc3ccc(-c4cnc(Cl)c(NS(=O)(=O)c5ccc(F)cc5)c4)cc3n2)CC1)c1ccc(F)c(F)c1Nc1ccc(I)cc1F

>  <RESULT_UNITS>
ng/mL

>  <concentration at 0.5 h>
1180

$$$$

---

EXPERIMENTAL_PROTOCOL: Pharmacokinetic analysis of plasma after intravenous and oral dosing
CONDITIONS_USED: female, CD-1, mouse, plasma, iv, 15 mg kg^−1, Concentration; Time 24 h; individual animals; Supplementary Figure 12b

>  <COMPOUND>
O=C(O)CCOCCOCCOCCONC(=O)c1ccc(F)c(F)c1Nc1ccc(I)cc1F [LP-622]

>  <RESULT_UNITS>
ng/mL

>  <concentration at 24 h>
3.48

$$$$

---

EXPERIMENTAL_PROTOCOL: in vivo
CONDITIONS_USED: female, CD-1, mouse, po

>  <SMILES_ENTRY>
COc1ccc(-c2ccc3c(N4CCOC[C@@H]4C)nc(N4CCOC[C@@H]4C)nc3n2)cc1CO

>  <concentration at 1 h [ng/mL]>
3440

$$$$

---

EXPERIMENTAL_PROTOCOL: Pharmacokinetic analysis of plasma after intravenous and oral dosing
CONDITIONS_USED: female, CD-1, mouse, plasma, iv, 15 mg kg^−1, Concentration, Figure 6c; Time 2 h; individual replicates
MEASUREMENT_LABEL: concentration at 2 h

>  <MOLECULE>
O=C(NOCCO)c1ccc(F)c(F)c1Nc1ccc(I)cc1F [PD0316684, reference compound]

>  <MEASUREMENT_LABEL>
concentration at 2 h

>  <RESULT>
18.7 ng/mL

$$$$

---

EXPERIMENTAL_PROTOCOL: in vivo
CONDITIONS_USED: female, CD-1, mouse, po

>  <MOLECULE>
COc1ccc(-c2ccc3c(N4CCOC[C@@H]4C)nc(N4CCOC[C@@H]4C)nc3n2)cc1CO [AZD8055]

>  <concentration at 7 h, ng/mL>
3930

$$$$

---

EXPERIMENTAL_PROTOCOL: in vivo
CONDITIONS_USED: female, CD-1, mouse, iv
MEASUREMENT_LABEL: concentration at 24 h (ng/mL)

>  <SMILES_ENTRY>
COc1ccc(-c2ccc3c(N4CCOC[C@@H]4C)nc(N4CCOC[C@@H]4C)nc3n2)cc1CO

>  <MEASUREMENT_LABEL>
concentration at 24 h

>  <QUANTITATIVE_READOUT>
1

$$$$

---

EXPERIMENTAL_PROTOCOL: Pharmacokinetic analysis of plasma after intravenous and oral dosing
CONDITIONS_USED: female, CD-1, mouse, plasma, iv, 15 mg kg^−1, Concentration; Time 2 h; individual animals; Supplementary Figure 12a

>  <COMPOUND>
O=C(O)c1ccc(F)c(F)c1Nc1ccc(I)cc1F [PD315209, reference compound]

>  <concentration at 2 h>
86.8 ng/mL

$$$$

---

EXPERIMENTAL_PROTOCOL: Bioavailability studies: recovery in feces and urine
Assay type: in vivo, mouse
CONDITIONS_USED: female, CD-1, mouse; mice, oral, feces collected after 24 h; read-out: recovery from fecal samples, % of total recovered

>  <SMILES_ENTRY>
O=C(NOCCOCCOCCOCCC(=O)N1CCN(c2cnc3ccc(-c4cnc(Cl)c(NS(=O)(=O)c5ccc(F)cc5)c4)cc3n2)CC1)c1ccc(F)c(F)c1Nc1ccc(I)cc1F

>  <dose excreted at 24 h>
~95%

$$$$

---

EXPERIMENTAL_PROTOCOL: Pharmacokinetic analysis of plasma after intravenous and oral dosing
CONDITIONS_USED: female, CD-1, mouse, plasma, po, 400 mg kg^−1, Concentration, Supplementary Figure 6a; Time 16 h; individual replicates

>  <COMPOUND>
O=C(O)c1ccc(F)c(F)c1Nc1ccc(I)cc1F [PD315209, reference compound]

>  <concentration at 16 h [ng/mL]>
572

$$$$

---

EXPERIMENTAL_PROTOCOL: Pharmacokinetic analysis of plasma after intravenous and oral dosing
CONDITIONS_USED: female, CD-1, mouse, plasma, iv, 15 mg kg^−1, Concentration, Supplementary Figure 6a; Time 24 h; individual replicates

>  <SMILES_ENTRY>
O=C(NOCCOCCOCCOCCC(=O)N1CCN(c2cnc3ccc(-c4cnc(Cl)c(NS(=O)(=O)c5ccc(F)cc5)c4)cc3n2)CC1)c1ccc(F)c(F)c1Nc1ccc(I)cc1F

>  <RESULT_UNITS>
ng/mL

>  <concentration at 24 h>
9.67

$$$$
